normalised viability listing for selected molecules.
System: CAL-85-1
Experiment: normalised viability (% of control), CellTiter-Blue; higher = more viable cells (about 100 = DMSO control)
Conditions: 100 nM; incubation time: 72 h
Reply numerically in %, unit not repeated.

O=C(/C=C/c1cccc(S(=O)(=O)Nc2ccccc2)c1)NO [Belinostat] ... 86.8

input: Find the recorded normalised viability belonging to CN(C)c1nc(N(C)C)nc(N(C)C)n1 [Altretamine] and report it.
output: 119

input: # input molecule: C=C1C[C@@H]2[C@H](CC[C@]3(C)C(=O)CC[C@@H]23)[C@@]2(C)C=CC(=O)C=C12 [Exemestane] ; wanted: its normalised viability
output: 89.8

input: Given the entry "N#Cc1ccc(COC[C@H]2O[C@@H](n3c(NCc4ccc(Cl)c(Cl)c4)nc4c(N)ncnc43)[C@H](O)[C@@H]2O)cc1" , report its measured normalised viability.
output: 110

====

System: CAL-51
Conditions: 72 h
REPORTED ENDPOINT: EC50, CellTiter-Glo (nM)
Give the value, in units of nM, as a plain number.

input: Item CC(C)C[C@@H](C(=O)N[C@H](C(=O)OC1CCCC1)c1ccccc1)[C@H](O)C(=O)NO [Tosedostat] has what recorded EC50, CellTiter-Glo?
output: 854

input: Recorded EC50, CellTiter-Glo for Nc1cc(C(F)(F)F)c(-c2cc(N3CCOCC3)nc(N3CCOCC3)n2)cn1 [Buparlisib] , please?
output: 2400

input: So what's the measured EC50, CellTiter-Glo for this one? O=C(Nc1cccnc1)N1CCC(Cc2cccc(Oc3ccc(C(F)(F)F)cn3)c2)CC1 [PF-3845]
output: 4200

====

Test system: Hs578T
Assay: normalised response (% of control), CellTiter-Glo; higher = more viable cells (100 = DMSO, 0 = benzethonium chloride kill control)
Conditions: incubation time: 72 h
# key: entry, value: normalised response
Use % as the unit, but write only the number.

Known normalised response results, listed for orientation:
CO[C@H]1C[C@@H]2CC[C@@H](C)[C@@](O)(O2)C(=O)C(=O)N2CCCC[C@H]2C(=O)O[C@H]([C@H](C)C[C@@H]2CC[C@@H](OP(C)(C)=O)[C@H](OC)C2)CC(=O)[C@H](C)/C=C(\C)[C@@H](O)[C@@H](OC)C(=O)[C@H](C)C[C@H](C)/C=C/C=C/C=C/1C [Ridaforolimus] (1 nM) ... 71.7
CNC(=O)c1ccc(N2C(=S)N(c3ccc(C#N)c(C(F)(F)F)c3)C(=O)C2(C)C)cc1F [Enzalutamide] (100 nM) ... 102
Cc1ccc(NC(=O)c2ccc(CN3CCN(C)CC3)cc2)cc1Nc1nc(-c2cccnc2)cs1 [Masitinib] (100 nM) ... 102

input: Requested field: normalised response. Item: COC(=O)c1ccc2c(c1)NC(=O)/C2=C(\Nc1ccc(N(C)C(=O)CN2CCN(C)CC2)cc1)c1ccccc1 [Nintedanib] (100 nM)
output: 103

input: Entry COc1cc2/c(=N/c3ccc(Br)cc3F)nc[nH]c2cc1OCC1CCN(C)CC1 [Vandetanib] (10 nM) has what normalised response?
output: 94.5

input: GET /values?readout=normalised response&item= CNC(=O)c1cc(Oc2ccc(NC(=O)Nc3ccc(Cl)c(C(F)(F)F)c3)c(F)c2)ccn1 [Regorafenib] (100 nM)
output: 108
